assay-target: PDE8A (Homo sapiens, UniProt O60658)
Construct: made in house; host or cells: Sf9 (baculovirus, pFASTBAC)
protocol-summary: PDE inhibition, recombinant PDE8A (SPA)
Assay type: biochemical
applied-conditions: human isoenzyme
Entries and their IC50 values follow.

- molecule-smiles: "COc1ccc(-c2ccccc2Cc2nc(N3CCC[C@H]3CO)c(C#N)c(=O)[nH]2)cn1"
  experimental-endpoint: "IC50"
  result-value: "> 4 µM"

Then there is this molecule:
**Query** Please look up its IC50: `COc1ccc(-c2ccccc2Cc2nc(N3CCCC3)c(C#N)c(=O)[nH]2)cn1`
**Result** > 4 µM

====

assay-target: PDE3B (Homo sapiens, UniProt Q13370)
Construct: made in house; host or cells: Sf9 (baculovirus, pFASTBAC)
Sequence (Q13370 whole entry): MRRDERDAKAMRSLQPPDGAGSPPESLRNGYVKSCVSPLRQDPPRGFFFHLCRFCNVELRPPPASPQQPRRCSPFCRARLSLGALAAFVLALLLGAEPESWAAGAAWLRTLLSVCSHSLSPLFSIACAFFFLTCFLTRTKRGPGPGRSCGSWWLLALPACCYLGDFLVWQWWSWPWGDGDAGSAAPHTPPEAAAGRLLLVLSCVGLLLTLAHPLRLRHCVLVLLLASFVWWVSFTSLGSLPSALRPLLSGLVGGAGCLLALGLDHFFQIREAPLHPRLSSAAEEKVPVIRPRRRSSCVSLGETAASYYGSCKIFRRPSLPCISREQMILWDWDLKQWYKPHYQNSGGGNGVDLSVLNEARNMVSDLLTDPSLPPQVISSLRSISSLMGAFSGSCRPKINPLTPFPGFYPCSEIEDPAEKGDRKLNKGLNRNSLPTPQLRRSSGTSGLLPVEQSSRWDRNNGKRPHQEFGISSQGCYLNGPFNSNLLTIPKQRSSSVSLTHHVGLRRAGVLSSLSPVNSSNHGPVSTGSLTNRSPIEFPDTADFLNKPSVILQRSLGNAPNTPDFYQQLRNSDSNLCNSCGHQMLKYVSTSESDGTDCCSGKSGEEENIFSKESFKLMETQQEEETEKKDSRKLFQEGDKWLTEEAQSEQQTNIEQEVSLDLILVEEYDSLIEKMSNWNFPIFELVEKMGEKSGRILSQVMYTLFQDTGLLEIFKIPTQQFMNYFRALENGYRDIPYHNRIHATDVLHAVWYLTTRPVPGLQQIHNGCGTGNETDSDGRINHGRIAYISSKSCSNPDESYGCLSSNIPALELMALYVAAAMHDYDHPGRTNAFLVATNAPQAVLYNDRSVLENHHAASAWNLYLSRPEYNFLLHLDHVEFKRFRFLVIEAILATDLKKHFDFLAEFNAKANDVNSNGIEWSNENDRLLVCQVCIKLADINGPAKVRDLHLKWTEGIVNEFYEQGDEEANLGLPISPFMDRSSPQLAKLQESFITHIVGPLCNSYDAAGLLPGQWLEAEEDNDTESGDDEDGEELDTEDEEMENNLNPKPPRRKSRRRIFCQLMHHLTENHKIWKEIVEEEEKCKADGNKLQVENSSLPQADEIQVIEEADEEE
protocol-summary: PDE inhibition, recombinant PDE3B (SPA)
Type: biochemical
applied-conditions: human isoenzyme
experimental-endpoint: IC50

- molecule-smiles: "COc1ccc(-c2ccccc2Cc2nc(N3CCC[C@H]3CO)c(C#N)c(=O)[nH]2)cn1"
  IC50: "> 4 µM"
- molecule-smiles: "COc1ccc(-c2ccccc2Cc2nc(N3CCCC3)c(C#N)c(=O)[nH]2)cn1"
  IC50: "> 4 µM"

Then there is this compound:
**Query** Please look up its IC50: `COc1ccc(-c2ccccc2Cc2nc(N3CCC(CCO)CC3)c(C#N)c(=O)[nH]2)cn1`
**Result** > 4 µM

====

assay-target: PDE1C (Homo sapiens, UniProt Q14123)
protocol-summary: PDE inhibition, recombinant PDE1C (SPA)
applied-conditions: human isoenzyme
Procedure: […] The test substances are dissolved in 100% DMSO and serially diluted to determine their in vitro effect on PDE9A. […] The plates are then measured for 30 s per well in a Microbeta scintillation counter (Wallac Inc., Atlanta, Ga.). IC50 values are determined from the graphical plot of the substance concentration versus the percentage inhibition. […]
experimental-endpoint: IC50

Field: example entries. Status: answers known.
- molecule-smiles: "COc1ccc(-c2ccccc2Cc2nc(N3CCCC3)c(C#N)c(=O)[nH]2)cn1"
  result-value: "> 4 µM"
- molecule-smiles: "COc1ccc(-c2ccccc2Cc2nc(N3CCC(CCO)CC3)c(C#N)c(=O)[nH]2)cn1"
  result-value: "> 4 µM"

**Query** Please look up its IC50: `COc1ccc(-c2ccccc2Cc2nc(N3CCC[C@H]3CO)c(C#N)c(=O)[nH]2)cn1`
**Result** > 4 µM

====

assay-target: PDE11A (Homo sapiens, UniProt Q9HCR9)
Sequence (Q9HCR9 445-933 limits assumed): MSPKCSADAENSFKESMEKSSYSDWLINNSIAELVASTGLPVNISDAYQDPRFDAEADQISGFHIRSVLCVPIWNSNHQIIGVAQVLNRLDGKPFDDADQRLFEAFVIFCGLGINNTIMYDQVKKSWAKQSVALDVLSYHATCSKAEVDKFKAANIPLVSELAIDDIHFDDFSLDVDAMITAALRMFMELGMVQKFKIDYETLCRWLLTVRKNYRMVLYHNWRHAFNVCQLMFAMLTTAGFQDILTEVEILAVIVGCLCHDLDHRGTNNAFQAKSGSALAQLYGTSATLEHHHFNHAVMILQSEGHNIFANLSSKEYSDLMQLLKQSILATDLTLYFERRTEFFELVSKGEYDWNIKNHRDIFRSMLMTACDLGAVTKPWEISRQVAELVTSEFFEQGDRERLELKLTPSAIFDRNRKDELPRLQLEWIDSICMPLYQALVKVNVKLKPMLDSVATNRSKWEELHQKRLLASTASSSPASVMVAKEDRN
protocol-summary: PDE inhibition, recombinant PDE11A (SPA)
applied-conditions: human isoenzyme, read-out: IC50 PDE11
pIC50: −log10 of the molar value.
Entries and their pIC50 values follow.

Field: example entries. Status: answers known.
- molecule-smiles: "COc1ccc(-c2ccccc2Cc2nc(N3CCC[C@H]3CO)c(C#N)c(=O)[nH]2)cn1"
  result-value: "< 5.40"
- molecule-smiles: "COc1ccc(-c2ccccc2Cc2nc(N3CCC(CCO)CC3)c(C#N)c(=O)[nH]2)cn1"
  result-value: "< 5.40"

**Query** Notebook entry, PDE11A (Homo sapiens, UniProt Q9HCR9) assay: pIC50 of `COc1ccc(-c2ccccc2Cc2nc(N3CCCC3)c(C#N)c(=O)[nH]2)cn1` = ?
**Result** 5.82

====

assay-target: PDE2A (Homo sapiens)
Construct: made in house; host or cells: Sf9 (baculovirus, pFASTBAC)
Sequence (O00408 whole entry): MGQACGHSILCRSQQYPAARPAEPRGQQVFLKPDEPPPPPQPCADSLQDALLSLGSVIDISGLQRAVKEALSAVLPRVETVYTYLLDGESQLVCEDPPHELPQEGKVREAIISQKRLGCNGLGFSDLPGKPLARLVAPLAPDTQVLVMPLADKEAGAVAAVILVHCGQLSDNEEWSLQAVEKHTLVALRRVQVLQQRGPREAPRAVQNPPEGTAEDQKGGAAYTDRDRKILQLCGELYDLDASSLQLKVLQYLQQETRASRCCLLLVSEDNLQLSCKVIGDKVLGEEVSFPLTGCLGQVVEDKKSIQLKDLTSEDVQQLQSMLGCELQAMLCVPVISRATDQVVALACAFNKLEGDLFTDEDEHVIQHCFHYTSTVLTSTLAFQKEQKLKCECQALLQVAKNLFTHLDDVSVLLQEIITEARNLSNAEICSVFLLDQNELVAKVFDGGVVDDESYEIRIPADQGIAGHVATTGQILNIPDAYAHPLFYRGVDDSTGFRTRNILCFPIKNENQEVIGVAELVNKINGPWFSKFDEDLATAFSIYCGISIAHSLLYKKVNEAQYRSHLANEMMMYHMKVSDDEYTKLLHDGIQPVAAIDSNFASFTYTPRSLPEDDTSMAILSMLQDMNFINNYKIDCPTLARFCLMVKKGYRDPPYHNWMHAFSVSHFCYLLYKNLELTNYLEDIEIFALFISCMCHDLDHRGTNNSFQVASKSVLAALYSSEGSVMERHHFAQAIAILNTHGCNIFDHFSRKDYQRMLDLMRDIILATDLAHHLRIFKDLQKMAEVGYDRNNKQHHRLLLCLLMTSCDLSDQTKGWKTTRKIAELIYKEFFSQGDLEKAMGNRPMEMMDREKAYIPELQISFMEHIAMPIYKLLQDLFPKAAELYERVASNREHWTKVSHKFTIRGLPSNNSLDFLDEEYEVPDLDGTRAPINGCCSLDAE
protocol-summary: PDE inhibition, recombinant PDE2A (SPA)
Assay type: biochemical
applied-conditions: human isoenzyme
Method: […] The test substances are dissolved in 100% DMSO and serially diluted to determine their in vitro effect on PDE9A. […] The plates are then measured for 30 s per well in a Microbeta scintillation counter (Wallac Inc., Atlanta, Ga.). IC50 values are determined from the graphical plot of the substance concentration versus the percentage inhibition. […]
experimental-endpoint: IC50

Field: example entries. Status: answers known.
- molecule-smiles: "COc1ccc(-c2ccccc2Cc2nc(N3CCC(CCO)CC3)c(C#N)c(=O)[nH]2)cn1"
  IC50: "> 4 µM"
- molecule-smiles: "COc1ccc(-c2ccccc2Cc2nc(N3CCC[C@H]3CO)c(C#N)c(=O)[nH]2)cn1"
  IC50: "> 4 µM"

**Query** Please look up its IC50: `COc1ccc(-c2ccccc2Cc2nc(N3CCCC3)c(C#N)c(=O)[nH]2)cn1`
**Result** > 4 µM

====

assay-target: PDE4B (Homo sapiens, UniProt Q07343)
Sequence (Q07343 212-736 limits assumed): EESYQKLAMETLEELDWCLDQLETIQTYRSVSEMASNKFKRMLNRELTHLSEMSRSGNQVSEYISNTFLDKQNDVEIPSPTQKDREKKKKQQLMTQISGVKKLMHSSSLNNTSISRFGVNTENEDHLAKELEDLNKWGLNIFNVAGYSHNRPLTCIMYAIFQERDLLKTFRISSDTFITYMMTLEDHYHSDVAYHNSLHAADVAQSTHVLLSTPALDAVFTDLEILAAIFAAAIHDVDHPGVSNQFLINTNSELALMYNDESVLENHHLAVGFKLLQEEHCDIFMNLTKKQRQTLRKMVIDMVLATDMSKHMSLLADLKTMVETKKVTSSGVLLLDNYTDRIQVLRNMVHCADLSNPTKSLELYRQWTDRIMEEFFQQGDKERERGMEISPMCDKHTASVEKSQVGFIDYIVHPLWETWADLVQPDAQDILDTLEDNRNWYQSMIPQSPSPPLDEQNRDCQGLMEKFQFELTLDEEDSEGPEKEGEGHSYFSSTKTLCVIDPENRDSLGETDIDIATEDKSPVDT
protocol-summary: PDE inhibition, recombinant PDE4B (SPA)
applied-conditions: human isoenzyme
Experimental: […] The test substances are dissolved in 100% DMSO and serially diluted to determine their in vitro effect on PDE9A. […] The plates are then measured for 30 s per well in a Microbeta scintillation counter (Wallac Inc., Atlanta, Ga.). IC50 values are determined from the graphical plot of the substance concentration versus the percentage inhibition. […]
experimental-endpoint: IC50

- molecule-smiles: "COc1ccc(-c2ccccc2Cc2nc(N3CCC[C@H]3CO)c(C#N)c(=O)[nH]2)cn1"
  assay-target: "PDE4B (Homo sapiens, UniProt Q07343)"
  IC50: "> 4 µM"
- molecule-smiles: "COc1ccc(-c2ccccc2Cc2nc(N3CCCC3)c(C#N)c(=O)[nH]2)cn1"
  assay-target: "PDE4B (Homo sapiens, UniProt Q07343)"
  IC50: "> 4 µM"

**Query** Please look up its IC50: `COc1ccc(-c2ccccc2Cc2nc(N3CCC(CCO)CC3)c(C#N)c(=O)[nH]2)cn1`
**Result** > 4 µM

====

Entries and their IC50 values follow.
assay-target: PDE7B (Homo sapiens)
Construct: made in house; host or cells: Sf9 (baculovirus, pFASTBAC)
Sequence (Q9NP56 whole entry): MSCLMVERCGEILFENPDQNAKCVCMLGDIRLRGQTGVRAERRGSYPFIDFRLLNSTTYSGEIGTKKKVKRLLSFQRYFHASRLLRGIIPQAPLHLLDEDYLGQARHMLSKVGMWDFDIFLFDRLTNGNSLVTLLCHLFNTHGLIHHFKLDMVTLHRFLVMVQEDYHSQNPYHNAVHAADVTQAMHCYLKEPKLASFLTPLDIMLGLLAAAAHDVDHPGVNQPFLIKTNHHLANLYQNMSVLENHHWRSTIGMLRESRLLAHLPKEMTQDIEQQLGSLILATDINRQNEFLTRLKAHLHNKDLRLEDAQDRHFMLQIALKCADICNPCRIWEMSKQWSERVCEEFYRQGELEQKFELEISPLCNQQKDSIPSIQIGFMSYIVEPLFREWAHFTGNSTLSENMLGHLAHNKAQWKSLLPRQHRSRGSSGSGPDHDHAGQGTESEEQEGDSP
protocol-summary: PDE inhibition, recombinant PDE7B (SPA)
Assay type: biochemical
applied-conditions: human isoenzyme
Procedure: […] The test substances are dissolved in 100% DMSO and serially diluted to determine their in vitro effect on PDE9A. […] The plates are then measured for 30 s per well in a Microbeta scintillation counter (Wallac Inc., Atlanta, Ga.). IC50 values are determined from the graphical plot of the substance concentration versus the percentage inhibition. […]

Field: example entries. Status: answers known.
- molecule-smiles: "COc1ccc(-c2ccccc2Cc2nc(N3CCCC3)c(C#N)c(=O)[nH]2)cn1"
  result-value: "> 4 µM"
- molecule-smiles: "COc1ccc(-c2ccccc2Cc2nc(N3CCC(CCO)CC3)c(C#N)c(=O)[nH]2)cn1"
  result-value: "2.2 µM"

**Query** Please look up its IC50: `COc1ccc(-c2ccccc2Cc2nc(N3CCC[C@H]3CO)c(C#N)c(=O)[nH]2)cn1`
**Result** > 4 µM
